Where do these numbers come from? They come from patent US20200205401A1.

- measurement_protocol: log P octanol by octanol saturated chromatography column
- Assay type: physicochemical
- details: octanol/water (octanol saturated chromatography column); 25° C., pH 6.98; read-out: octanol water partition coefficient (log P octanol)
endpoint_name: chromatographic logP

>>> value_reported("CCC1CCC(=O)O1 (stereo not shown) [γ-Caprolactone, 5-ethyltetrahydrofuran-2-one]")
0.34
